Test: Apparent permeability across basolateral to apical side in human Caco2 cells assessed as mass balance
Format: ADME, cell-based
Conditions: Caco-2, read-out: permeability
PARAMETER: recovery (%)
Numbers only, in %.

// query Return value of recovery for input CSc1nncc(-c2cnnc(SCCN(C)C)n2)n1 , no commentary.
// result 90

----------
Assay: Apparent permeability across apical to basolateral side in human Caco2 cells
Type: ADME, cell-based
Settings: Caco-2
PARAMETER: Papp A→B (×10⁻⁶ cm/s)
Give bare numbers, in ×10⁻⁶ cm/s.

// query Return value of Papp A→B for input CSc1nncc(-c2cnnc(SCCN(C)C)n2)n1 , no commentary.
// result 49

----------
Test: Kinetic solubility of the compound in phosphate buffer at pH 6.5 after 30 mins by nephelometry
Format: physicochemical
Settings: read-out: Kinetic_solubility
PARAMETER: solubility kinetic at 0.5 h

INSERT INTO results (structure_string, parameter, endpoint_result) VALUES
  ('CCCSc1nncc(-c2cnnc(SCCC)n2)n1', 'solubility kinetic at 0.5 h', '3.1 to 6.3 µg/mL'),
  ('OCCCSc1nncc(-c2cnnc(SCCCO)n2)n1', 'solubility kinetic at 0.5 h', '60 to 100 µg/mL'),
  ('CSc1nncc(-c2cnnc(SC)n2)n1', 'solubility kinetic at 0.5 h', '3.1 to 6.3 µg/mL');

Provide reported solubility kinetic at 0.5 h for each item, in the same order as listed.
1. CSc1nncc(-c2cnnc(OCCN(C)C)n2)n1
2. COCCSc1nncc(-c2cnnc(SCCOC)n2)n1
3. CCCCSc1nncc(-c2cnnc(SCCCC)n2)n1
4. CC(C)CSc1nncc(-c2cnnc(SCC(C)C)n2)n1
5. CSc1nncc(-c2cnnc(SC3CCCC3)n2)n1

// result
["50 to 100 µg/mL", "12.5 to 25 µg/mL", "< 1.6 µg/mL", "1.6 to 3.1 µg/mL", "6.3 to 12.5 µg/mL"]

Provide reported solubility kinetic at 0.5 h for each item, in the same order as listed.
1. CSc1nncc(-c2cnnc(SCCCO)n2)n1
2. CSc1nncc(-c2cnnc(SCCN(C)C)n2)n1
3. COc1nncc(-c2cnnc(OC)n2)n1

// result
50 to 100 µg/mL
6.3 to 12.5 µg/mL
50 to 100 µg/mL

----------
So I've got a bunch of molecules here, and I need their solubility kinetic at 0.5 h values.
Test: Kinetic solubility of the compound in HCL buffer at pH 2 after 30 mins by nephelometry
Assay type: physicochemical
Settings: read-out: Kinetic_solubility

Worked cases, solubility kinetic at 0.5 h given:
INSERT INTO assay_data (structure_string, parameter, endpoint_result) VALUES
  ('COCCSc1nncc(-c2cnnc(SCCOC)n2)n1', 'solubility kinetic at 0.5 h', '12.5 to 25 µg/mL'),
  ('CCCCSc1nncc(-c2cnnc(SCCCC)n2)n1', 'solubility kinetic at 0.5 h', '< 1.6 µg/mL'),
  ('CSc1nncc(-c2cnnc(SC3CCCC3)n2)n1', 'solubility kinetic at 0.5 h', '6.3 to 12.5 µg/mL');

Provide reported solubility kinetic at 0.5 h for each item, in the same order as listed.
1. COc1nncc(-c2cnnc(OC)n2)n1
2. CCCSc1nncc(-c2cnnc(SCCC)n2)n1
3. CSc1nncc(-c2cnnc(SCCCO)n2)n1
4. CSc1nncc(-c2cnnc(SC)n2)n1
5. CC(C)CSc1nncc(-c2cnnc(SCC(C)C)n2)n1
6. CSc1nncc(-c2cnnc(OCCN(C)C)n2)n1

// result
1: > 100 µg/mL; 2: 3.1 to 6.3 µg/mL; 3: 50 to 100 µg/mL; 4: 6.3 to 12.5 µg/mL; 5: 1.6 to 3.1 µg/mL; 6: 25 to 50 µg/mL

Provide reported solubility kinetic at 0.5 h for each item, in the same order as listed.
1. OCCCSc1nncc(-c2cnnc(SCCCO)n2)n1
2. CSc1nncc(-c2cnnc(SCCN(C)C)n2)n1

// result
1. 25 to 50 µg/mL
2. 6.3 to 12.5 µg/mL

----------
Assay: Apparent permeability across apical to basolateral side in human Caco2 cells assessed as mass balance
Type: ADME, cell-based
Conditions: Caco-2, read-out: permeability
PARAMETER: recovery

// query Return value of recovery for input CSc1nncc(-c2cnnc(SCCN(C)C)n2)n1 , no commentary.
// result 85%
